In this section, each of the compounds is paired with its reported Fluorescence competitive binding assay, OBP2 (raw fluorescence reading).
biological target: SfurOBP2 (Sogatella furcifera, UniProt V5T759); test: biochemical; type: binding; details: ligand concentration 14 (unit not given), replicate column 2 of 3
Sequence (V5T759 entry or part of it): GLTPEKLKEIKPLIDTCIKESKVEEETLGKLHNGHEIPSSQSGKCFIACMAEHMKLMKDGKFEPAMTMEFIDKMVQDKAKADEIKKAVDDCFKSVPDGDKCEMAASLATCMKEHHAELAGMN
ENDPOINT: Fluorescence competitive binding assay, OBP2 (raw fluorescence reading)

COMPOUND | RESULT_VALUE
C=C/C(C)=C/C/C=C(\C)CCC=C(C)C | 18512
CC1=CC[C@@H](C(C)(C)O)CC1 | 15181
Cc1ccc(C(C)C)cc1 | 14565
CC(=O)/C=C/C1=C(C)CCCC1(C)C | 13915
C=CC(C)(O)CCC=C(C)C (centres unmarked) | 15983
CCCCCCCCCCOCCCCCCCCCC | 46610
CCC/C=C/CO [(E)-2-hexenol] | 13764
CCCCCCCCCCCCCCCC | 11754
C/C(=C\CO)CCC[C@H](C)CCC[C@H](C)CCCC(C)C | 19570
CC/C=C\CCO [(Z)-3-hexenol] | 14819
OC1CCCCC1 | 15068
c1ccc2ccccc2c1 | 18013
C=C1CC/C=C(\C)CC[C@@H]2[C@@H]1CC2(C)C | 15785
CCCCCCCCCCC | 13279
CCCCCCCCCCCCO | 13952
CCCCCCC=CCO | 19948
CCCCCCCC=O | 18527
O=C(c1ccccc1)c1ccccc1 | 12436
O=Cc1ccccc1 | 13284
CCCCCC(C)=O | 13126
COC(=O)c1ccccc1 | 14578
CCCCCCCCCCCCCCCC(=O)OC [MH(methyl hexadecanoate)] | 56230
Cc1cc(C(C)(C)C)c(O)c(C(C)(C)C)c1 | 13317
CCCCCCCCCCCCC=O | 18876
CC(=O)c1ccccc1 | 15647
C=C(C)C1CC=C(C)CC1 (single isomer, unassigned; (+)) [(+)-limonene] | 13950
